experiment: molar heat capacity at constant pressure; conditions: 358.15 K; 101.33 kPa; Crystal; Small sample (50 mg) DSC
quantity_name: molar heat capacity at constant pressure (J/K/mol)

Please review the entries below; each comes with its answer.
# compound, scale_unit, molar heat capacity at constant pressure
records = [
    ("O.OC[C@H]1O[C@@H](O[C@H]2[C@H](O)[C@@H](O)[C@@H](O)O[C@@H]2CO)[C@H](O)[C@@H](O)[C@H]1O [α-D-lactose hydrate]", "J/K/mol", 522.7),
    ("OC[C@H]1O[C@@H](O[C@H]2[C@H](O)[C@@H](O)[C@H](O)O[C@@H]2CO)[C@H](O)[C@@H](O)[C@@H]1O [D-cellobiose]", "J/K/mol", 534.8),
    ("OC[C@H]1O[C@@H]2O[C@H]3[C@H](O)[C@@H](O)[C@@H](O[C@H]4[C@H](O)[C@@H](O)[C@@H](O[C@H]5[C@H](O)[C@@H](O)[C@@H](O[C@H]6[C@H](O)[C@@H](O)[C@@H](O[C@H]7[C@H](O)[C@@H](O)[C@@H](O[C@H]8[C@H](O)[C@@H](O)[C@@H](O[C@H]1[C@H](O)[C@H]2O)O[C@@H]8CO)O[C@@H]7CO)O[C@@H]6CO)O[C@@H]5CO)O[C@@H]4CO)O[C@@H]3CO [β-cyclodextrin]", "J/K/mol", 1752.1),
]

I = CO[C@H]1O[C@H](CO)[C@@H](O)[C@H](O)[C@H]1O [methyl-α-D-glucopyranoside]
II = OC[C@H]1O[C@@](CO)(O[C@H]2O[C@H](CO)[C@@H](O)[C@H](O)[C@H]2O)[C@@H](O)[C@@H]1O [D-sucrose]
// task: argmin of molar heat capacity at constant pressure over [ I , II ] Respond with the label that goes with your answer.
I

* * *

assay: molar heat capacity at constant pressure; conditions: 293.15 K; 101.33 kPa; Crystal; Small sample (50 mg) DSC
quantity_name: molar heat capacity at constant pressure (J/K/mol)

# compound, scale_unit, molar heat capacity at constant pressure
measured = [
    ("O=C[C@H](O)[C@@H](O)[C@@H](O)[C@H](O)CO [(+)-galactose]", "J/K/mol", 210.7),
]

P = OC[C@H]1O[C@@](CO)(O[C@H]2O[C@H](CO)[C@@H](O)[C@H](O)[C@H]2O)[C@@H](O)[C@@H]1O
Q = O=C[C@@H](O)[C@@H](O)[C@H](O)[C@H](O)CO
// task: argmin of molar heat capacity at constant pressure over [ P , Q ] Respond with the label that goes with your answer.
Q
(Q: 200.7 J/K/mol, P: 416.6 J/K/mol)

* * *

assay: molar heat capacity at constant pressure; settings: 328.15 K; 101.33 kPa; Crystal; Small sample (50 mg) DSC
quantity_name: molar heat capacity at constant pressure (J/K/mol)

Please review the entries below; each comes with its answer.
# compound, molar heat capacity at constant pressure / J/K/mol
rows = [
    ("O=C[C@H](O)[C@H](O)[C@H](O)CO [D-ribose]", 245.1),
    ("CC(=O)N[C@@H](C=O)[C@@H](O)[C@H](O)[C@H](O)CO [N-acetyl-D-glucosamine]", 293.1),
    ("O=C(CO)[C@@H](O)[C@H](O)[C@H](O)CO [D-fructose]", 251.8),
]

A = O=CC[C@H](O)[C@H](O)CO [2-deoxy-D-erythropentose]
B = OC[C@H]1O[C@@H](O[C@H]2[C@H](O)[C@@H](O)[C@H](O)O[C@@H]2CO)[C@H](O)[C@@H](O)[C@@H]1O [D-cellobiose]
Which has the higher molar heat capacity at constant pressure, A or B ? Respond with the label that goes with your answer.
B

Recorded values, source the NIST ThermoML archive (doi:10.1016/j.jct.2008.08.007).
